tested on: Candida parapsilosis; assay: Antifungal activity against Candida parapsilosis ATCC 0306392 after 7 days by micro-broth dilution method; assay type: functional; conditions: Lodderomyces parapsilosis, ATCC 0306392, 168 h
Measurement type: MIC80

[
  {
    "Molecule": "O=C(Nc1ccc(N2CCN(CC(O)(Cn3cncn3)c3ccc(F)cc3F)CC2)c(F)c1)c1ccccc1Cl (stereo not drawn)",
    "System": "Candida parapsilosis",
    "Measurement type": "MIC80",
    "Reported result": "0.0152 µg/mL"
  },
  {
    "Molecule": "Cc1ccc(C(=O)Nc2ccc(N3CCN(CC(O)(Cn4cncn4)c4ccc(F)cc4F)CC3)c(F)c2)cc1 (stereo not drawn)",
    "System": "Candida parapsilosis",
    "Measurement type": "MIC80",
    "Reported result": "0.0152 µg/mL"
  },
  {
    "Molecule": "COc1ccc(C(=O)Nc2ccc(N3CCN(CC(O)(Cn4cncn4)c4ccc(F)cc4F)CC3)c(F)c2)cc1 (stereo not drawn)",
    "System": "Candida parapsilosis",
    "Measurement type": "MIC80",
    "Reported result": "0.0152 µg/mL"
  },
  {
    "Molecule": "O=C(Nc1ccc(N2CCN(CC(O)(Cn3cncn3)c3ccc(F)cc3F)CC2)c(F)c1)c1ccccc1Br (stereo not drawn)",
    "System": "Candida parapsilosis",
    "Measurement type": "MIC80",
    "Reported result": "0.0152 µg/mL"
  },
  {
    "Molecule": "O=C(Nc1ccc(N2CCN(CC(O)(Cn3cncn3)c3ccc(F)cc3F)CC2)c(F)c1)c1ccc(Cl)cc1Cl (stereo not drawn)",
    "System": "Candida parapsilosis",
    "Measurement type": "MIC80",
    "Reported result": "0.0152 µg/mL"
  },
  {
    "Molecule": "O=C(Nc1ccc(N2CCN(CC(O)(Cn3cncn3)c3ccc(F)cc3F)CC2)c(F)c1)c1ccc(OC(F)(F)F)cc1 (stereo not drawn)",
    "System": "Candida parapsilosis",
    "Measurement type": "MIC80",
    "Reported result": "0.0625 µg/mL"
  },
  {
    "Molecule": "O=C(Nc1ccc(N2CCN(CC(O)(Cn3cncn3)c3ccc(F)cc3F)CC2)c(F)c1)c1ccc([N+](=O)[O-])cc1 (stereo not drawn)",
    "System": "Candida parapsilosis",
    "Measurement type": "MIC80",
    "Reported result": "1 µg/mL"
  },
  {
    "Molecule": "CCC(C)n1ncn(-c2ccc(N3CCN(c4ccc(OCC5COC(Cn6cncn6)(c6ccc(Cl)cc6Cl)O5)cc4)CC3)cc2)c1=O (stereo not drawn)",
    "System": "Candida parapsilosis",
    "Measurement type": "MIC80",
    "Reported result": "0.25 µg/mL"
  }
]

* * *

system: Aspergillus fumigatus; assay: Antifungal activity against Aspergillus fumigatus after 7 days by micro-broth dilution method; type: functional; conditions: 168 h
Measurement type: MIC80 (µg/mL)

[
  {
    "Compound": "O=C(Nc1ccc(N2CCN(CC(O)(Cn3cncn3)c3ccc(F)cc3F)CC2)c(F)c1)c1cccc(Cl)c1 (stereo not drawn)",
    "Unit of measure": "µg/mL",
    "Inequality sign": "=",
    "Reported result": 4
  },
  {
    "Compound": "COc1ccc(C(=O)Nc2ccc(N3CCN(CC(O)(Cn4cncn4)c4ccc(F)cc4F)CC3)c(F)c2)cc1OC (stereo not drawn)",
    "Unit of measure": "µg/mL",
    "Inequality sign": "=",
    "Reported result": 1
  },
  {
    "Compound": "O=C(Nc1ccc(N2CCN(CC(O)(Cn3cncn3)c3ccc(F)cc3F)CC2)c(F)c1)c1ccccc1Cl (stereo not drawn)",
    "Unit of measure": "µg/mL",
    "Inequality sign": "=",
    "Reported result": 1
  },
  {
    "Compound": "O=C(Nc1ccc(N2CCN(CC(O)(Cn3cncn3)c3ccc(F)cc3F)CC2)c(F)c1)c1ccccc1F (stereo not drawn)",
    "Unit of measure": "µg/mL",
    "Inequality sign": "=",
    "Reported result": 4
  },
  {
    "Compound": "CCc1ccc(C(=O)Nc2ccc(N3CCN(CC(O)(Cn4cncn4)c4ccc(F)cc4F)CC3)c(F)c2)cc1 (stereo not drawn)",
    "Unit of measure": "µg/mL",
    "Inequality sign": "=",
    "Reported result": 1
  },
  {
    "Compound": "COc1ccc(C(=O)Nc2ccc(N3CCN(CC(O)(Cn4cncn4)c4ccc(F)cc4F)CC3)c(F)c2)cc1 (stereo not drawn)",
    "Unit of measure": "µg/mL",
    "Inequality sign": "=",
    "Reported result": 0.25
  },
  {
    "Compound": "Cc1cccc(C(=O)Nc2ccc(N3CCN(CC(O)(Cn4cncn4)c4ccc(F)cc4F)CC3)c(F)c2)c1 (stereo not drawn)",
    "Unit of measure": "µg/mL",
    "Inequality sign": "=",
    "Reported result": 1
  },
  {
    "Compound": "C[C@@H](c1ncncc1F)[C@](O)(Cn1cncn1)c1ccc(F)cc1F",
    "Unit of measure": "µg/mL",
    "Inequality sign": ">",
    "Reported result": 64
  }
]

* * *

tested on: Aspergillus fumigatus; experiment: Antifungal activity against Aspergillus fumigatus after 7 days by micro-broth dilution method; type: functional; conditions: 168 h

[
  {
    "Compound": "CC(=O)N1CCN(c2ccc(OC[C@H]3CO[C@](Cn4ccnc4)(c4ccc(Cl)cc4Cl)O3)cc2)CC1",
    "MIC80, µg/mL": 1
  },
  {
    "Compound": "O=C(Nc1ccc(N2CCN(CC(O)(Cn3cncn3)c3ccc(F)cc3F)CC2)c(F)c1)c1cccc(C(F)(F)F)c1 (centres undefined)",
    "MIC80, µg/mL": 4
  },
  {
    "Compound": "COc1cc(C(=O)Nc2ccc(N3CCN(CC(O)(Cn4cncn4)c4ccc(F)cc4F)CC3)c(F)c2)cc(OC)c1OC (centres undefined)",
    "MIC80, µg/mL": 4
  },
  {
    "Compound": "CCCCc1ccc(C(=O)Nc2ccc(N3CCN(CC(O)(Cn4cncn4)c4ccc(F)cc4F)CC3)c(F)c2)cc1 (centres undefined)",
    "MIC80, µg/mL": 16
  }
]

* * *

Reported MIC80 values for the following compounds.
test system: Aspergillus fumigatus; experiment: Antifungal activity against Aspergillus fumigatus after 7 days by micro-broth dilution method; format: functional; details: 168 h

[
  {
    "Compound": "O=[N+]([O-])c1ccc(N2CCN(CC(O)(Cn3cncn3)c3ccc(F)cc3F)CC2)c(F)c1 (stereo not drawn)",
    "MIC80 / µg/mL": 1
  },
  {
    "Compound": "O=C(Nc1ccc(N2CCN(CC(O)(Cn3cncn3)c3ccc(F)cc3F)CC2)c(F)c1)c1ccccc1Br (stereo not drawn)",
    "MIC80 / µg/mL": 1
  },
  {
    "Compound": "C[C@@H]1[C@H](O)[C@@H](C)/C=C/C=C/C=C/C=C/C=C/C=C/C=C/[C@H](O[C@@H]2O[C@H](C)[C@@H](O)[C@H](N)[C@@H]2O)C[C@@H]2O[C@](O)(C[C@@H](O)C[C@@H](O)[C@H](O)CC[C@@H](O)C[C@@H](O)CC(=O)O[C@H]1C)C[C@H](O)[C@H]2C(=O)O",
    "MIC80 / µg/mL": 4
  },
  {
    "Compound": "Cc1ccc(C(=O)Nc2ccc(N3CCN(CC(O)(Cn4cncn4)c4ccc(F)cc4F)CC3)c(F)c2)c(C)c1 (stereo not drawn)",
    "MIC80 / µg/mL": 1
  },
  {
    "Compound": "O=C(Nc1ccc(N2CCN(CC(O)(Cn3cncn3)c3ccc(F)cc3F)CC2)c(F)c1)c1ccc([N+](=O)[O-])cc1 (stereo not drawn)",
    "MIC80 / µg/mL": 4
  },
  {
    "Compound": "CCCc1ccc(C(=O)Nc2ccc(N3CCN(CC(O)(Cn4cncn4)c4ccc(F)cc4F)CC3)c(F)c2)cc1 (stereo not drawn)",
    "MIC80 / µg/mL": 4
  },
  {
    "Compound": "CC(C)c1ccc(C(=O)Nc2ccc(N3CCN(CC(O)(Cn4cncn4)c4ccc(F)cc4F)CC3)c(F)c2)cc1 (stereo not drawn)",
    "MIC80 / µg/mL": 4
  },
  {
    "Compound": "COc1ccccc1C(=O)Nc1ccc(N2CCN(CC(O)(Cn3cncn3)c3ccc(F)cc3F)CC2)c(F)c1 (stereo not drawn)",
    "MIC80 / µg/mL": 1
  }
]
